Provide the reported IC50 of each item.
# target.under.test: T1, human NGF-Fc4 (IgG4-Fc) (human, UniProt P01138 122-241, limits assumed)
# T1 construct: not shown: human IgG4 Fc
# experiment.notes: competition ELISA: antibody pre-incubated with human NGF-Fc4, binding to coated TrkA-Fc
Answer shape: numeric part, then the unit.

Record request: IC50 value, item Ab48 (antibody, human IgG1, V domains shown) VH: EVQLVQSGAEVKKPGESLKISCKGSGYSFITYWISWVRQMPGKGLEWMGAIDPSDSDARYSPSFQGQVTISADKSISTAYLQWSSLKASDTAMYYCAKSDPGYSGYSLLYGFDSWGQGTLVTVSS VL: DIVMTQSPLSLPVTLGQPASISCRSSQSLVQRNGNTYLSWYQQRPGQSPRLLIYQVSNRYSGVPDRFSGSGSGTDFTLKISRVEAEDVGVYYCGQGAHLPLTFGQGTKVEIK
0.0935 µg/mL

Please answer likewise for Ab47 (antibody, human IgG1, V domains shown) VH: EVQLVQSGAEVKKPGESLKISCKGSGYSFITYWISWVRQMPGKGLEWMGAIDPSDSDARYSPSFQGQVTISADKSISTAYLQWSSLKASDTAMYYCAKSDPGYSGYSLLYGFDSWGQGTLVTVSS VL: DIVMTQSPLSLPVTLGQPASISCRSSQSLVQRNGNTYLSWFQQRPGQSPRLLIYQVSNRYSGVPDRFSGSGSGTDFTLKISRVEAEDVGVYYCGQGAHLPLTFGQGTKVEIK
0.0662 µg/mL

Please answer likewise for Ab54 (antibody, human IgG1, V domains shown) VH: EVQLVQSGAEVKKPGESLKISCKISGYSFITYWISWVRQMPGKGLEWMGAIDPSDSDARYSPSFQGQVTISADKSISTAYLQWSSLKASDTAMYYCAKSDPGYSGYSLLYGFDSWGQGTLVTVSS VL: DVVMTQSPLSLPVTLGQPASISCRSSQSLVQRNGNTYLSWYQQRPGQSPRLLIYQVSNRYSGVPDRFSGSGSGTDFTLKISRVEAEDVGVYYCGQGAHLPLTFGQGTKVEIK
0.0702 µg/mL

Please answer likewise for Ab16 (antibody, human IgG1, V domains shown) VH: EVQLVQSGAEVKKPGATVKISCKVSGYSFITYWISWVQQAPGKGLEWMGAIDPSDSDARYSPSFQGRVTITADTSTDTAYMELSSLRSEDTAVYYCAKSDPGYSGYSLLYGFDSWGQGTLVTVSS VL: DVVMTQSPLSLPVTLGQPASISCRSSQSLVQRNGNTYLSWFQQRPGQPPRLLIYQVSNRYSGVPDRFSGSGSGTDFTLKISRVEAEDVGVYYCGQGAHLPLTFGQGTKVEIK
0.0735 µg/mL

Please answer likewise for Tanezumab (antibody, part only; not given: constant regions, V domains shown, not shown: another chain or arm of the molecule) VH: QVQLQESGPGLVKPSETLSLTCTVSGFSLIGYDLNWIRQPPGKGLEWIGIIWGDGTTDYNSAVKSRVTISKDTSKNQFSLKLSSVTAADTAVYYCARGGYWYATSYYFDYWGQGTLVTVSS VL: DIQMTQSPSSLSASVGDRVTITCRASQSISNNLNWYQQKPGKAPKLLIYYTSRFHSGVPSRFSGSGSGTDFTFTISSLQPEDIATYYCQQEHTLPYTFGQGTKLEIK
0.0602 µg/mL
